Tested on: IKZF2 (Homo sapiens, UniProt Q96SW2+Q9UKS7)
Construct: expressed in transfected cells; host or cells: HEK293T (lentiviral transduction, puromycin selection, FACS sorting)
Sequence (Q9UKS7 whole entry): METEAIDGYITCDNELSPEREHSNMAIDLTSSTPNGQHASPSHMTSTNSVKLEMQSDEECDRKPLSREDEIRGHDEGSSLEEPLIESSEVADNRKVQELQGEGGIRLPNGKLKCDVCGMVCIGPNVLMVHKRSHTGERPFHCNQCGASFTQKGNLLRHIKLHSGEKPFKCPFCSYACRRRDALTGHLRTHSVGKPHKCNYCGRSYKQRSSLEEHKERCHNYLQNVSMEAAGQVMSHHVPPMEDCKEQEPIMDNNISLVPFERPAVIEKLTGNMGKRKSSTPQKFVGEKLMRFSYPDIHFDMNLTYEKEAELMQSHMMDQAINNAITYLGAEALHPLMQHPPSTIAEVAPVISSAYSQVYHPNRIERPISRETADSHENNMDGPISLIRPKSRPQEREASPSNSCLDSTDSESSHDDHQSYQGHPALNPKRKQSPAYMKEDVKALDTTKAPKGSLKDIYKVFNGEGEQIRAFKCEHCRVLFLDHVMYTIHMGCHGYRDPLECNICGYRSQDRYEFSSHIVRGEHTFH
Sequence (Q96SW2 whole entry): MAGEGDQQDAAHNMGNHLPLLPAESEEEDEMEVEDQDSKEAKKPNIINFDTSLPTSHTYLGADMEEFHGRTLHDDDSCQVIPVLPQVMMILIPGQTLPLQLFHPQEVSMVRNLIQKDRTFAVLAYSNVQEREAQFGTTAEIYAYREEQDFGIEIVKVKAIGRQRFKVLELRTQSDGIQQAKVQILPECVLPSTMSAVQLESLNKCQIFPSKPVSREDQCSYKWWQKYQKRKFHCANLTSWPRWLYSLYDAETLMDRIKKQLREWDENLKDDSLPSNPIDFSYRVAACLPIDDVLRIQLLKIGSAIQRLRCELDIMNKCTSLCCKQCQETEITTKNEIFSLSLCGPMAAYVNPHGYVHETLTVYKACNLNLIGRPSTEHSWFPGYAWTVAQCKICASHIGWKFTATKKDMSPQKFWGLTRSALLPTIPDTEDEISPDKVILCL
Sequence (Q16531 whole entry partner): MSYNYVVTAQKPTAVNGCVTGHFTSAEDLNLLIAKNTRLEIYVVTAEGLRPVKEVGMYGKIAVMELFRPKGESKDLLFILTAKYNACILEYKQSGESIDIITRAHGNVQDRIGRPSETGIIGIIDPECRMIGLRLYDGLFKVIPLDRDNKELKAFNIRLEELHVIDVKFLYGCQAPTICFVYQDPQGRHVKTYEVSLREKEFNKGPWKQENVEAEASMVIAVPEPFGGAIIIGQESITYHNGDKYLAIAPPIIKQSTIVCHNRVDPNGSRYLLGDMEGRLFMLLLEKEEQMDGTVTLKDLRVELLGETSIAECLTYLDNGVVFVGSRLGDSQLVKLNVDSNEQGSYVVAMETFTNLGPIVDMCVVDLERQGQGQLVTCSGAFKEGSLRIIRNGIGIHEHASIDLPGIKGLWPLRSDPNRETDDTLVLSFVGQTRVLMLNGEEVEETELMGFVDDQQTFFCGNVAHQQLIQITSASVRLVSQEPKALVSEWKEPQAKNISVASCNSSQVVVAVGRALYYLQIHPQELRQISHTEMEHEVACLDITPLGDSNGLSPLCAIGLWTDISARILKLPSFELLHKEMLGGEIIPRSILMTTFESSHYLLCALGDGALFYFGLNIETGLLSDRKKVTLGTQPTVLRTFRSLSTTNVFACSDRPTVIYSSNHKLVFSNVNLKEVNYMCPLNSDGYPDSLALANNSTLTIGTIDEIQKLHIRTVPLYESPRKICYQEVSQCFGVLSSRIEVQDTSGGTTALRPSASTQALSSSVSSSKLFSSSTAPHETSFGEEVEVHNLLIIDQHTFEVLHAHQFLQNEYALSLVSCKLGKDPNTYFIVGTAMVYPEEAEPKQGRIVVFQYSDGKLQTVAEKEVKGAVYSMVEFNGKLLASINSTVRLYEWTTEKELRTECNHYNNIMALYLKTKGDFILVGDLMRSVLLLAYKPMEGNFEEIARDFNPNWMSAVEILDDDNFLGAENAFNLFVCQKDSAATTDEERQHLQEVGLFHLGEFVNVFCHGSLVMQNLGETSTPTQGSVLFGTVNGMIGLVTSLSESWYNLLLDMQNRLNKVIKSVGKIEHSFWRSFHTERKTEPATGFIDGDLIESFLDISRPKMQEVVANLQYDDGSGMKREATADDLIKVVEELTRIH
Test: Flow cytometry for measuring degradation, HEK293T GFP-POI reporter cells (IKZF2)
Type: cell-based
Cond: 100 nM, 24 h, HEK293T GFP reporter
Quantity: IKZF2% degradation at 100 nM (%)

{"columns": ["Compound", "IKZF2% degradation at 100 nM [%]"],
 "data": [
  ["N#Cc1ccc2cc(C(=O)Nc3ccc4c(c3)CN(C3CCC(=O)NC3=O)C4=O)ccc2c1 (stereo not drawn) [DEG-91]", 89.4],
  ["COc1ccc(/C=C/C(=O)Nc2ccc3c(c2)CN(C2CCC(=O)NC2=O)C3=O)cc1 (stereo not drawn) [DEG-60]", 74.7],
  ["O=C1CCC(N2Cc3cc(NC(=O)Cc4cccc5ccccc45)ccc3C2=O)C(=O)N1 (stereo not drawn) [DEG-67]", 92.2],
  ["CSc1ccc2cc(C(=O)Nc3ccc4c(c3)CN(C3CCC(=O)NC3=O)C4=O)ccc2c1 (stereo not drawn) [DEG-95]", 86.7],
  ["O=C1CCC(N2Cc3cc(NC(=O)c4ccc5c(c4)CCCC5)ccc3C2=O)C(=O)N1 (stereo not drawn) [DEG-87]", 74],
  ["O=C1CCC(N2Cc3cc(NC(=O)c4cccc(Oc5ccccc5)c4)ccc3C2=O)C(=O)N1 (stereo not drawn) [DEG-55]", 73.9]
]}
